test-system: full length p300 (Homo sapiens (Human))
Sequence (Q09472 whole entry): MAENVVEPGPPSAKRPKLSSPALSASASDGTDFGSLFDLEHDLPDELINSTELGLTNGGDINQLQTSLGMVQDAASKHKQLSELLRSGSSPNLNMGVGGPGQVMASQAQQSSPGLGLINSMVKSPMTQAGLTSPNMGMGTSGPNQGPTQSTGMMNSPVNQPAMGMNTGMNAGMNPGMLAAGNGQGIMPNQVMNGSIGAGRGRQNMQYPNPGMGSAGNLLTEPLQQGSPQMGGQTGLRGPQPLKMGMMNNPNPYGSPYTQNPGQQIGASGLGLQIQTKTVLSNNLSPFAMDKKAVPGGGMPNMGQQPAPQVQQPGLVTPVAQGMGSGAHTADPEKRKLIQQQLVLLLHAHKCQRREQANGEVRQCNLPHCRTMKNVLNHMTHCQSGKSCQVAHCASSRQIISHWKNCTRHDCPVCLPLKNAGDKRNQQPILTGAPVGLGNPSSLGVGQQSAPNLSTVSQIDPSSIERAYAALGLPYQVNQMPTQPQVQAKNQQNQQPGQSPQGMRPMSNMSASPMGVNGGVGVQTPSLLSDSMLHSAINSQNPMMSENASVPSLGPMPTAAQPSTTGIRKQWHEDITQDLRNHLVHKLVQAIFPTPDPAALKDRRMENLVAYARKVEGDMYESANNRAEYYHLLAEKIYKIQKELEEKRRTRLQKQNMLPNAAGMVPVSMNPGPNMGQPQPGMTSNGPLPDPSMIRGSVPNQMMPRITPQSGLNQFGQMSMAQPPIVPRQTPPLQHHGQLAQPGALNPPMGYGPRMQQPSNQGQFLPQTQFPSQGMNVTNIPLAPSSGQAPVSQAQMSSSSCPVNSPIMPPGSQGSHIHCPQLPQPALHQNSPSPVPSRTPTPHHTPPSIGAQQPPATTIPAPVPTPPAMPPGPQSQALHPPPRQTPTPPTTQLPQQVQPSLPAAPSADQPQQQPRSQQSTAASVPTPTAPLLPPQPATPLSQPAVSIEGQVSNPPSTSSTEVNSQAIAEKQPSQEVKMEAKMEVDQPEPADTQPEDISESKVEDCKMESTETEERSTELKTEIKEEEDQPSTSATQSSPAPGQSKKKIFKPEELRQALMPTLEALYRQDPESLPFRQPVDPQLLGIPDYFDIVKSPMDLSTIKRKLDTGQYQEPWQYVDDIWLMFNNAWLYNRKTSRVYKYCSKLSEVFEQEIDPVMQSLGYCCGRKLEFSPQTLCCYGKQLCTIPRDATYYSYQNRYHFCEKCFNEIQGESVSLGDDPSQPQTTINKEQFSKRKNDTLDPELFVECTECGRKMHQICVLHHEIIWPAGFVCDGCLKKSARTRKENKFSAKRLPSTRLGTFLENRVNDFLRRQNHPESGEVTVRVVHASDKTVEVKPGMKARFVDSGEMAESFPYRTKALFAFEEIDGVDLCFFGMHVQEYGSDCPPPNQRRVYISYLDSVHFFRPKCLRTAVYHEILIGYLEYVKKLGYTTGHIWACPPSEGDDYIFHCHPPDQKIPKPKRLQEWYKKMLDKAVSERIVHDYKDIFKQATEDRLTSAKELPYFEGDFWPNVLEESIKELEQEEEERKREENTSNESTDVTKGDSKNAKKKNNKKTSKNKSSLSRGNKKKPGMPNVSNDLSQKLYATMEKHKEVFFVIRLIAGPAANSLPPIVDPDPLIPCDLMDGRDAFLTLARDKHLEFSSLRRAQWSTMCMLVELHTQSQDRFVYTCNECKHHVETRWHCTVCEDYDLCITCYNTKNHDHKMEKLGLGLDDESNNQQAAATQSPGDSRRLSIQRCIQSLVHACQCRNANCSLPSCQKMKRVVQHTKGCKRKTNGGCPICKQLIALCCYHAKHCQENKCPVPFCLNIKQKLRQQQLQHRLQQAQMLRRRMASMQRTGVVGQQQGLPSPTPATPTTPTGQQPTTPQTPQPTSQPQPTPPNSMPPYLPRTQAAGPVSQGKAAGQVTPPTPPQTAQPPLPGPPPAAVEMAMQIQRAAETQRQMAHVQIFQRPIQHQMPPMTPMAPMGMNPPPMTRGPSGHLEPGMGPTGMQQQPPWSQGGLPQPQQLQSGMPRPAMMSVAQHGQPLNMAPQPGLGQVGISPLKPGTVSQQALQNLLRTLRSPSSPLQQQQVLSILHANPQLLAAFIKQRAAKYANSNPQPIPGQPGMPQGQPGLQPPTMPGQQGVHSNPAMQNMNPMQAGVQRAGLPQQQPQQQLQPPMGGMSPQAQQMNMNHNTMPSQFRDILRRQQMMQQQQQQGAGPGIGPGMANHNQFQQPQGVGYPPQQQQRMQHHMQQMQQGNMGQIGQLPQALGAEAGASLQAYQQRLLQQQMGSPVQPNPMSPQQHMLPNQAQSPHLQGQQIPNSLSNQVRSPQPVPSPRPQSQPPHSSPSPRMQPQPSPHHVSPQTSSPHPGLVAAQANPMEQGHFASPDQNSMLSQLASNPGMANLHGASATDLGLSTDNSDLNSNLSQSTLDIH
property-name: IC50 (nM)

- C[C@H](CNC(C(=O)Nc1ccc(-c2ccn(C)c(=O)c2)cn1)c1ccccc1)c1ccc(C#N)cc1 (single isomer, unassigned) [105 Isomer 2]: 0.7
- Cc1cn(-c2ccc(NC(=O)C(NCCc3ccc(C#N)cc3)c3ccccc3)nc2)cn1 (single isomer, unassigned) [28 Isomer 2]: 24
- Cc1ccc(CCNC(C(=O)Nc2ccc(-c3cnn(C)c3)cn2)c2ccccc2)cc1 (single isomer, unassigned) [48 Isomer 2]: 31.8
- Cn1cnc(-c2ccc(NC(=O)C(NCCc3ccc(C#N)cc3)c3ccccc3)nc2)c1 (single isomer, unassigned) [13 Isomer 1]: 273

* * *

pIC50: −log10 of the molar value.
Here's a batch of compounds along with measured pIC50 for full length p300 (Homo sapiens (Human), UniProt Q09472).
property-name: pIC50

- C[C@H](CNC(C(=O)Nc1ccc(-c2ccc(=O)n(C)n2)cn1)c1ccccc1)c1ccc(C#N)cc1 (single isomer, unassigned) [134 Isomer 2]: > 8.49
- Cc1cn(-c2ccc(NC(=O)C(NCCc3ccc(C#N)cc3)c3ccccc3)nc2)cn1 (single isomer, unassigned) [28 Isomer 1]: > 8.70
- C[C@H](CNC(C(=O)Nc1ccc(N2CCN(C)C(=O)C2)cn1)c1cccc(F)c1)c1ccc(C#N)cc1 (single isomer, unassigned) [137 Isomer 2]: > 8.49
- Cc1c(-c2ccc(NC(=O)C(NC[C@@H](C)c3ccc(C#N)cc3)c3ccccc3)nc2)cnn1C (single isomer, unassigned) [114 Isomer 2]: 9.14

* * *

Below, each entry is listed alongside its reported log10 of IC50.
test-system: p300 HAT domain (residues 1287-1666) (Homo sapiens (Human))
Sequence (Q09472 1287-1666): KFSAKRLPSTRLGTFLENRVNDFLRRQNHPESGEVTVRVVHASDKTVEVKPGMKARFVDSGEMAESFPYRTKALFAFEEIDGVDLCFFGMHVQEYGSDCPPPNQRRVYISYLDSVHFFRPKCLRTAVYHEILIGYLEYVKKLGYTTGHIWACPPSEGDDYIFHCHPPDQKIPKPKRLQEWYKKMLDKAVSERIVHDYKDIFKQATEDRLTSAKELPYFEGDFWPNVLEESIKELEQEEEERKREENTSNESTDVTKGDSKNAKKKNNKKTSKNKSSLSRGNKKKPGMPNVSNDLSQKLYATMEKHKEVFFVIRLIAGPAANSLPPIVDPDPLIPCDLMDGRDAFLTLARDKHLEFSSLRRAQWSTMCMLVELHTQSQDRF
assay-info: p300 HAT SPA assay (scintillation proximity assay, acetylation of biotinylated H3(1-21) peptide)
Format: biochemical
test-settings: average of at least 2 replicate titrations
property-name: log10 of IC50 (log10 of the value in nM)

• CC(Cc1ccc(Cl)cc1)NC(C(=O)Nc1ccc(-c2cnn(C)c2)cc1)c1ccccc1 (single isomer, unassigned) [3 Isomer 4] = 3.59
• CC(CNC(C(=O)Nc1ccc(-c2cnn(C)c2)cn1)c1ccccc1)c1ccc(C#N)c(F)c1 (single isomer, unassigned) [91 Isomer 4] = 2.60
• N#Cc1ccc(CCNC(C(=O)Nc2ccc(C3CC3)cn2)c2ccccc2)cc1 (single isomer, unassigned) [42 Isomer 2] = 3.48
• CC(CNC(C(=O)Nc1ccc(-c2cnn(C)c2)cc1)c1ccccc1)c1ccc(C#N)cc1 (single isomer, unassigned) [82 Isomer 3] = 2.78
• CC(CNC(C(=O)Nc1ccc(-c2cnn(CC(F)(F)F)c2)cn1)c1ccccc1)c1ccc(C#N)cc1 (single isomer, unassigned) [83 Isomer 4] = 1.31
• CC(CNC(C(=O)Nc1ccc(-c2cnn(C)c2)cc1)c1ccccc1)c1ccc(C#N)cc1 (single isomer, unassigned) [82 Isomer 4] = 1.06
• Cn1cc(-c2ccc(NC(=O)[C@@H](NCCc3ccc(C#N)cc3)c3ccccc3)cc2)cn1 (single isomer, unassigned) [1 Isomer 2] = 2.11
• Cc1noc(C)c1-c1ccc(NC(=O)C(NC[C@@H](C)c2ccc(C#N)cc2)c2ccccc2)nc1 (single isomer, unassigned) [131 Isomer 1] = 2.56
• Cn1cc(-c2ccc(NC(=O)C(NCCc3ccc(C#N)cc3)C3CCCCC3)nc2)cn1 (single isomer, unassigned) [89 Isomer 2] = 3.16
